# METHOD DESCRIPTION: Molar enthalpy of transition or fusion
# PROTOCOL CONDITIONS: Crystal; Differential scanning calorimeter
For each entry below, report its Molar enthalpy of transition or fusion value.
Enter your answer as a number in kcal/mol; do not include the unit.

Query string: Using the record for O=C(Oc1ccccc1)c1ccccc1O [phenyl salicylate] , report its Molar enthalpy of transition or fusion.
Result string: 4.54

Query string: // next record c1ccc(-c2ccccc2)cc1 [biphenyl]
Result string: 4.42

Query string: // next record CC(=O)Nc1ccccc1 [N-phenylethanamide]
Result string: 5.22

Query string: // next record O=C(O)C(c1ccccc1)c1ccccc1 [2,2-diphenylethanoic acid]
Result string: 7.45

Query string: // next record c1ccc2ccccc2c1 [naphthalene]
Result string: 4.5

Query string: // next record O=C(C(=O)c1ccccc1)c1ccccc1 [1,2-diphenylethanedione]
Result string: 5.57

Query string: // next record O=C(O)c1ccccc1 [benzoic acid]
Result string: 4.3

====

# PROTOCOL CONDITIONS: Crystal; Differential scanning calorimeter
// NB: equality with 100 °C counts as f; only Normal melting temperature strictly below is t

Query string: Lab note: Normal melting temperature threshold 100 °C. Does this compound come in strictly under it? O=C(O)C(c1ccccc1)c1ccccc1 [2,2-diphenylethanoic acid]
Result string: f

Query string: // next record O=C(C(=O)c1ccccc1)c1ccccc1 [1,2-diphenylethanedione]
Result string: t

Query string: // next record c1ccc(-c2ccccc2)cc1 [biphenyl]
Result string: t

Query string: // next record O=C(O)c1ccccc1 [benzoic acid]
Result string: f

Query string: // next record CC(=O)Nc1ccccc1 [N-phenylethanamide]
Result string: f

Query string: // next record c1ccc2ccccc2c1 [naphthalene]
Result string: t

Query string: // next record O=C(Oc1ccccc1)c1ccccc1O [phenyl salicylate]
Result string: t

Attribution: the NIST ThermoML archive (doi:10.1016/j.tca.2012.03.028)
